Data export: IC50 values recorded with YEATS domain-containing protein 4 (Homo sapiens, UniProt O95619).
Sequence (O95619 whole entry, the tested form may be a part): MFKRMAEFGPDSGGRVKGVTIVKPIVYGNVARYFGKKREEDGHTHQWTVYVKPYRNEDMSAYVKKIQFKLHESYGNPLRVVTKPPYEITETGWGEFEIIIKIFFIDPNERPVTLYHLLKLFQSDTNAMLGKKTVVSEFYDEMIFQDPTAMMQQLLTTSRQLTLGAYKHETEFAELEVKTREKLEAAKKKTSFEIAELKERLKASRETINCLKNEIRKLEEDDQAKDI

Returns the measured IC50 for the input compound. Input: O=C(NC1CCCC1)c1cc(-c2ccc(Cl)c(O)c2)on1
> 5.8 µM

What do you have for CN(C)C(=O)c1ccc(-c2cc(C(=O)N[C@@H]3CCc4ccccc43)no2)cc1O ?
> 30 µM

What do you have for O=C(NC1CCCC1)c1cc(-c2cccc(O)c2)on1 ?
> 30 µM

----------
Provide the recorded pIC50 for the entries that follow.
biological target: Protein ENL (Homo sapiens); experiment: Inhibition of His-tagged MLLT1 YD domain (unknown origin) assessed as disruption of protein binding to histone peptide using biotinylated histone peptide as substrate by AlphaScreen assay
Sequence (Q03111 whole entry, the tested form may be a part): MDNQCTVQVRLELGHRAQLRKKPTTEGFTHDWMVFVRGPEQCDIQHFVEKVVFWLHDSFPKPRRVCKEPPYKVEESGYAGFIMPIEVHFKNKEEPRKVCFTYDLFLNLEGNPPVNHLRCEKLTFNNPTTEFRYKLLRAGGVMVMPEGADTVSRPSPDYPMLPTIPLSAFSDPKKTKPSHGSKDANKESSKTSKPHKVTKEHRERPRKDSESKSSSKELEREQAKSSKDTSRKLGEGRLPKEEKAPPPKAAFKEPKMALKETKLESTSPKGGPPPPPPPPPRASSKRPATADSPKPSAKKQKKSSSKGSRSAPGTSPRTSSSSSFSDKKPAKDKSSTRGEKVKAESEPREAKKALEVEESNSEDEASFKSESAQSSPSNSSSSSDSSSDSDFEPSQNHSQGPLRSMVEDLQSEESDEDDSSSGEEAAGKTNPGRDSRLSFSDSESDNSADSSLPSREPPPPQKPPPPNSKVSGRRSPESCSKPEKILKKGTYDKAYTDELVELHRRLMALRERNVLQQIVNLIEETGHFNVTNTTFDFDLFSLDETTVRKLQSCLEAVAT
Scale note: pIC50 = -log10(concentration in M).

Returns the measured pIC50 for the input compound. Input: O=C(NC1CCCC1)c1cc(-c2ccc(O)cc2)on1
5.16

What do you have for O=C(NC1CCCC1)c1cc2cc(F)ccc2[nH]1 ?
5.25

What do you have for O=C(NC1CCCC1)c1ccc2snnc2c1 ?
5.52

What do you have for O=C(NCC1CC1)c1cc(-c2cccc(O)c2)on1 ?
4.66

What do you have for O=C(NC1CC1)c1cc(-c2cccc(O)c2)on1 ?
4.54

What do you have for CC(C)NC(=O)c1cc(-c2cccc(O)c2)on1 ?
5.04

What do you have for O=C(NC1CCCC1)c1cc(-c2cccc(O)c2)on1 ?
5.96

What do you have for O=C(NC1CCC1)c1cc(-c2cccc(O)c2)on1 ?
5.94

----------
experiment: Passive apparent permeability in dog MDCK cells; assay type: ADME, cell-based, Canis lupus familiaris
Test Readout: Papp (×10⁻⁶ cm/s)
Give just the numeric value; ×10⁻⁶ cm/s need not be written.

Returns the measured Papp for the input molecule. Input: CN(C)C(=O)c1ccc(-c2cc(C(=O)N[C@@H]3CCc4ccccc43)no2)cc1O
27

----------
target: UniProt Q03111; experiment: Inhibition of MLLT1 YD domain (unknown origin) assessed as disruption of histone peptide binding using histone peptide as substrate by HTRF assay
Test Readout: IC50 (nM)
Give just the numeric value; nM need not be written.

Returns the measured IC50 for the input compound. Input: O=C(NC1CCCC1)c1cnn(-c2cccc(O)c2)c1
3400

What do you have for CN(C)C(=O)c1ccc(-c2cc(C(=O)NC3CCCC3)no2)cc1O ?
160

What do you have for O=C(NC1CCCC1)c1cc(-c2ccc(Cl)c(O)c2)on1 ?
750

What do you have for O=C(NC1CCCC1)c1cc(-c2cccc(O)c2)on1 ?
930

What do you have for O=C(NC1CCCC1)c1cn(-c2cccc(O)c2)cn1 ?
970

What do you have for O=C(NC1CCCC1)c1cc(-c2cc(O)c3cccnc3c2)on1 ?
260

What do you have for O=C(NC1CCCC1)c1cc(-c2cccc(O)c2)n[nH]1 ?
2500

----------
Target: Protein AF-9 (Homo sapiens, UniProt P42568)
Sequence (P42568 whole entry): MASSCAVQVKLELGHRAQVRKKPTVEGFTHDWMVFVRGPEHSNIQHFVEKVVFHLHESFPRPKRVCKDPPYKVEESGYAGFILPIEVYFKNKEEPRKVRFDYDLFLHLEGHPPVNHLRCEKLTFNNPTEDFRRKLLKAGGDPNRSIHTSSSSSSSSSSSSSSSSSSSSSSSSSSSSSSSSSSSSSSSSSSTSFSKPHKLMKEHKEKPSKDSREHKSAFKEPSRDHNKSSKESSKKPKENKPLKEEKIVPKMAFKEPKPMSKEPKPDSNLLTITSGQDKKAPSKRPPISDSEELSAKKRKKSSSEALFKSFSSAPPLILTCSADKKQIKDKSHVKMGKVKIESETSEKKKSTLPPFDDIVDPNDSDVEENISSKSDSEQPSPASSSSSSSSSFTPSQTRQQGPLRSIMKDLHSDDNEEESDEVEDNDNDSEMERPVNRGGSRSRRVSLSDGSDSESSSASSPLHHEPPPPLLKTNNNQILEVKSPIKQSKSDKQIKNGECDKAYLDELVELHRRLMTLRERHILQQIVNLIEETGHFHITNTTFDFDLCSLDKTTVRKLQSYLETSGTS
Test: Inhibition of MLLT3 YD domain (unknown origin) assessed as disruption of histone peptide binding using histone peptide as substrate by HTRF assay
Test Readout: IC50 (nM)
Give just the numeric value; nM need not be written.

Returns the measured IC50 for the input molecule. Input: O=C(NC1CCCC1)c1cc(-c2cc(O)c3cccnc3c2)on1
200

What do you have for O=C(NC1CCCC1)c1cn(-c2cccc(O)c2)cn1 ?
500

What do you have for O=C(NC1CCCC1)c1cc(-c2ccc(Cl)c(O)c2)on1 ?
500
